experimental_target: T1, HEL (hDicer helicase domain) (Homo sapiens, UniProt Q9UPY3 1-624)
T1 sequence: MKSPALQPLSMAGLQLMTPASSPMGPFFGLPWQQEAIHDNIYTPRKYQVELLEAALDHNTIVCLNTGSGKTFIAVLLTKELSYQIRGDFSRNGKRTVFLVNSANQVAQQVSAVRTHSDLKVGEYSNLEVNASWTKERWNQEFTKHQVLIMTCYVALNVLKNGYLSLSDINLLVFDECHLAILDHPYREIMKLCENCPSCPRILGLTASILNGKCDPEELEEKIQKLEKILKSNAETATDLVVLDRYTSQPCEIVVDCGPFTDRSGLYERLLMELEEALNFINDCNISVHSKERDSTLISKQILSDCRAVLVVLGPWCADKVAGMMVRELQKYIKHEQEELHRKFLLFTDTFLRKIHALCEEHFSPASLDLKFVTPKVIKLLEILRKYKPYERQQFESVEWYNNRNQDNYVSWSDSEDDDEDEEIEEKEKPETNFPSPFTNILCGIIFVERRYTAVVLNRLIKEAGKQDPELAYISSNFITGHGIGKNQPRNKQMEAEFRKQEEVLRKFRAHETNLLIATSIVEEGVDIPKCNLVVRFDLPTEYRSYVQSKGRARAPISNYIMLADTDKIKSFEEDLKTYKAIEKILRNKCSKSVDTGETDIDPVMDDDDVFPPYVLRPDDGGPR
test_description: BLI; 23 C, HEL immobilized; 50 mM Tris-HCl pH 7.5, 150 mM NaCl; EMSA 15 min at room temperature (also 4 and 37 C), 5% native PAA gel in 1x TBE at 4 C; BLI 23 C
protocol_conditions: protein: recombinant; tags: N-terminal His6 (pMCSG7); label: 5' 32P (EMSA); none (BLI)
measured_endpoint: Kd

Guide cases for Kd, answers given:
QUERY: What measured Kd goes with GGGAGAATCATAAGTAGCCTCCCCCCATGTTAACAGTTAGCC (ssDNA) [D42] ?
RESULT: ~22 µM

QUERY: Then D56 (ssDNA) DNA: GGGAGAATCATAAGTAGCGCAGTGAGTCGTTGTGCTGCCCATGTTAACAGTTAGCC ?
RESULT: ~21 µM

Others:
QUERY: What measured Kd goes with R56 (ssRNA) RNA: GGGAGAAUCAUAAGUAGCGCAGUGAGUCGUUGUGCUGCCCAUGUUAACAGUUAGCC ?
RESULT: ~23 µM
